Tested on: HS 578T breast
assay_summary: NCI tumour cell line growth inhibition, 48 h
Recorded TGI values for a group of compounds are listed next.
endpoint_label: TGI

In [3]: df
Out[3]:
                                   compound   measured
0  COc1ccc(-c2nsc3c2NC(=O)CC3c2ccc(F)cc2)cc1 (stereo not given)  > 73.8 µM
1  Cc1cccc(-c2nn3c(c2-c2ccnc4ccc(C(N)=O)cc24)CCC3)n1   > 100 µM
2         CCn1ncc2c1nc(-c1ccccc1)c[n+]2[O-]   > 100 µM
3  Cc1ccc(-c2cc(-c3ccc(Cl)cc3)nc(/N=C3\C(=O)N(CN4CCOCC4)c4ccccc43)n2)cc1    51.5 µM
4             CCOC(=O)CC(=O)C(=O)NNC1=NCCN1   > 100 µM

---

System: RXF 393 renal
assay_summary: NCI tumour cell line growth inhibition, 48 h; in the data active means GI50 below about 0.43 µM; inactive means the rest
Classes used: True (active), False (inactive)

                                   compound  class_label
0  COC(=O)C(Cc1cnc[nH]1)NC(=O)CNC(=O)CCCn1c(=O)c2c3ccccc3n(C)c2n2nnc(-c3ccccc3)c12 (stereo not given)        False
1  CNC(=O)c1c(NC(=O)c2ccc(C(F)(F)F)cc2)sc2c1CCC(=O)C2         True
2  CCOC(CCCNCCCn1c2c(c3cc(OC)c(OC)cc3c1=O)C(=O)c1cc3c(cc1-2)OCO3)OCC        False
3  C/C1=C/C(=O)O[C@@H]2C[C@@H](CC[C@H](C)/C=C\C=C\CC1)O[C@@](O)([C@@H]1CSC(=O)N1CO)C2         True
4           COc1c2c3ccccc3nc-2n(C)c2ccccc12        False
5      Fc1ccc(-c2nn3c(CNc4ccccc4)nnc3s2)cc1        False
6    COc1ccccc1/C=C/C(=O)c1c(O)cc2occc2c1OC        False
7  Cc1cc(C(=O)Nc2nc3cccc(Cl)c3n2[C@@H]2CCCCN(C(=O)/C=C/CN(C)C)C2)ccn1        False
8  NCCCCCCCCn1c2c(c3ccccc3c1=O)C(=O)c1ccccc1-2        False
9                      O=Nc1ccc(O)c2ccccc12        False

---

System: HOP-18 NSCLC
assay_summary: NCI tumour cell line growth inhibition, 48 h
Quick reference: TGI of the listed items.
endpoint_label: TGI

>>> print(df.to_string())
                                   compound   measured
0  CCN(CC)CC.CCOc1ccc(NC(=O)N=C=[N-])cc1.[CH-]1CCCCC1.[CH-]1CCCCC1.[CH-]1CCCCC1.[Cl-].[Sn+4]  0.0376 µM
1           COc1ccc(/C=N/N=C(\N)NO)c(Cl)c1O    54.2 µM
2  CC(=O)NC(CCCCN(Cc1ccccc1)C(=O)NCCCl)C(=O)NCc1ccccc1 (centres undefined)   > 100 µM
3  N.N.N.N.O=NN1CCCCCC1(P(=O)([O-])[O-])P(=O)([O-])[O-].[Pt+4].[Pt+4]   > 100 µM
4  O=c1cc(-c2ccccc2)oc2cc(OCC(O)COc3ccc4c(=O)cc(-c5ccccc5)oc4c3)ccc12   > 100 µM
5                       C=CCCCn1ccc2ccccc21   > 100 µM
6  CCOc1cc2ccc3c4cc(OC)c(OC)cc4cnc3c2cc1OCC   > 100 µM
7       Nc1nc(Cl)cc(NCCCNc2cc(Cl)nc(N)n2)n1   > 100 µM
8             COc1cccc(NC(=O)C(C)(C)C)c1C=O   > 100 µM
